Molecular target: human Kv1.5 channels (Homo sapiens, UniProt P22460)
Construct: expressed in transfected cells
Sequence (P22460 whole entry): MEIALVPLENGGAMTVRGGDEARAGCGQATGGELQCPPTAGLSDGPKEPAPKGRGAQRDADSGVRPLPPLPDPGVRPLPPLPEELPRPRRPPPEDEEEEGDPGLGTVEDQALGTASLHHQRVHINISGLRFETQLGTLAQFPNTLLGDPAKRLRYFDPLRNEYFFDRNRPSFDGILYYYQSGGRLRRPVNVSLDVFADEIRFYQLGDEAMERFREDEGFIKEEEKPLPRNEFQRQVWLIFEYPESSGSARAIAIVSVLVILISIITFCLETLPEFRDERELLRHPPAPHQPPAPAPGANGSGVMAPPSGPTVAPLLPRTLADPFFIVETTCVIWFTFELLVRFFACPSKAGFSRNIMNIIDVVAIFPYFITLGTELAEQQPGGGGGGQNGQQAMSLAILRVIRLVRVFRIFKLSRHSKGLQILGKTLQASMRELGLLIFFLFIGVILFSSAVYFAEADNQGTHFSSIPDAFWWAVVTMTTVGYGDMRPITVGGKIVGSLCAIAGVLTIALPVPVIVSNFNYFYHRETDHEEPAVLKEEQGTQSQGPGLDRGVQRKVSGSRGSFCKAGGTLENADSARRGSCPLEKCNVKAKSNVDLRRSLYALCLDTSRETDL
Experiment: Kv1.5 current inhibition, whole-cell electrophysiology in LTK cells stably expressing human Kv1.5
Format: cell-based
Settings: current at end of 300 ms pulse at 50 mV; 0.3-10 µM; mean ± SEM of 3 to 5 measurements; read-out: IC50 of Kv1.5 current inhibition
measured property: pIC50
Lab note — pIC50 values are minus log10 of concentrations in M.

Param readout= pIC50; system= human Kv1.5 channels (Homo sapiens, UniProt P22460); entry= CO[C@@H](CC[C@H](C)[C@H]1O[C@@]23C[C@H](OC(=O)C[C@H]([C@@H](C)O)OC(=O)/C=C(\O2)C(C)=CC3(C)C)[C@@H]1C)c1cccc(O)c1 [Compound 1, oscillatoxin J] ; returns value.
5.58

----------
Tested on: Artemia salina
Test: whole plant or invertebrate
Assay type: in vivo
Settings: 1 µM, 24 h
Measured Percentage of Survival of Artemia salina after 24 h, listed per entry.
# number only, unit % dropped from output

Query the reported Percentage of Survival of Artemia salina after 24 h for Artemia salina; item: CO[C@@H](CC[C@H](C)[C@H]1O[C@@]23C[C@H](OC(=O)C[C@H]([C@@H](C)O)OC(=O)/C=C(\O2)C(C)=CC3(C)C)[C@@H]1C)c1cccc(O)c1 [Compound 1, oscillatoxin J]
95.87

***
Find Percentage of Survival of Artemia salina after 24 h (Artemia salina) for the entry COC(CCC(C)C1OC23CC(OC(=O)CC(C(C)O)OC(=O)CC(C)(O2)C(=O)CC3(C)C)C1C)c1cccc(O)c1 (stereo not drawn) [Compound 4, oscillatoxin M]
96.29

So what Percentage of Survival of Artemia salina after 24 h did ClCCl [Methylenechloride, dichloromethane, reference compound] get with Artemia salina?
0

What value of Percentage of Survival of Artemia salina after 24 h on Artemia salina does CO[C@@H](CC[C@H](C)[C@H]1O[C@]23C[C@H](OC(=O)C[C@H]([C@@H](C)O)OC(=O)[C@H](O)C(=C(C)CC2(C)C)O3)[C@@H]1C)c1cccc(O)c1 [Compound 2, oscillatoxin K] have?
96.05

Value wanted: Percentage of Survival of Artemia salina after 24 h (Artemia salina) of entry CO[C@@H](CC[C@H](C)[C@H]1O[C@@]23C[C@H](OC(=O)C[C@H]([C@@H](C)O)OC(=O)C[C@](O)(O2)[C@H](C)CC3(C)C)[C@@H]1C)c1cccc(O)c1 [Compound 5, debromoaplysiatoxin]
2.96

Recall the recorded Percentage of Survival of Artemia salina after 24 h for CO[C@@H](CC[C@H](C)[C@H]1O[C@@]23C[C@H](OC(=O)C[C@H]([C@@H](C)O)OC(=O)C[C@](O)(O2)[C@@](C)(O)CC3(C)C)[C@@H]1C)c1cccc(O)c1 [Compound 3, oscillatoxin L] with Artemia salina and state it.
98.89
